# TESTED TARGET: T1, human TREM2 on cells (human, UniProt Q9NZC2 19-230)
# T1 sequence: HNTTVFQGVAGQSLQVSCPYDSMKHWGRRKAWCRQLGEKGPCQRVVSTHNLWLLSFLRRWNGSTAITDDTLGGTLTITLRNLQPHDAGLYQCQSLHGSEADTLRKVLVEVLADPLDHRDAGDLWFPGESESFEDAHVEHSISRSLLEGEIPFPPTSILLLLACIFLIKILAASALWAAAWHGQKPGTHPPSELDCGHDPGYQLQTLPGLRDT
# TEST METHOD NOTES: cell-based or functional assay
METRIC NAME: EC50, Jurkat NFAT luciferase reporter cells (µg/mL)
Value expressed in µg/mL; do not type the unit.

BINDER | QUANTITATIVE RESULT
hPara.09.v2 Q100P (antibody, V domains shown, Human IgG1 N297G in the cell assays; also called huPara.09.v2 Q100P; hPara.09 Q100P) VH: EVQLVESGGGLVQPGGSLKLSCATSGFPFSNVWLHWVRQASGKGPEWVAHIKAKSDNYATYYAESVKGRFTISRDDSKNTVYLQMNSLKTEDTAVYYCTDILEYWGQGTLVTVSS VL: DVVMTQSPLSLPVTPGEPASISCRSSRSLLTSKGITSLYWYLQKPGQSPQLLIYRMSNLASGIPDRFSGSGSGTDFTLKISRVEAEDVGVYYCAQFLVYPYTFGPGTKVEIK | 0.0178

Data request: # query: EC50, Jurkat NFAT luciferase reporter cells of entry rat Para.09- LC 3.27H7 mIgG2a LALAPG (antibody, V domains shown, Mouse IgG2a LALAPG constant region; also called Rat para.09 mIgG2a LALAPG; Para.09. mIgG2a LALAPG) VH: EVQLVETGGSLVQPGKSLRLTCATSGFPFSNVWLHWVRQSPEKHPEWVAHIKAKSDNYATYYAESVKGRFTISRDDSKSSVFLQMNSLKEEDTAIYYCTDILEYWGQGTLVTVSS VL: DVVLTQAPLSVSVTPGESASISCRSSRSLLTSKGITSLYWYLQKPGMSPHLLIYRMSNLASGIPDRFSGSGSETDFTLKISEVEPEDVGVYYCAQFLVYPYTFGAGTKLELKR
Data returned: 0.04

Data request: What do you get for rat 3.10C2 mIgG2a LALAPG (antibody, V domains shown, also called Rat 3.10C2 mIgG1a LALAPG) VH: EVQLVETGGSLVQPGKSLKLTCATSGFPFSNVWMHWVRQSPEKQLEWIAHIKAKSDNYATYYAESVKGRFTISRDDSKTSIYLQMNSLKEDDTAIYYCTGLDYWGQGVMVTVSS VL: DTVLTQAPLSLSVTPGESASISCRSSKSLLGVRDITSLYWYLQKPGKSPQLLIYRMSNLASGVPDRFSGSGSETDFTLKISEVETEDVGVYYCAQFLRYPYTFGPGTKLELK ?
Data returned: 0.28
